Entries and their measured TGI follow.
- System: OVCAR-4 ovarian
- test_details: NCI tumour cell line growth inhibition, 48 h
measured_quantity: TGI (µM)

>  <compound>
COC(=O)C(C(=O)C(=O)Nc1c(Cl)cc([N+](=O)[O-])cc1Cl)c1nc2cc(C)c(C)cc2[nH]c1=O (centres undefined)

>  <measured_target>
OVCAR-4 ovarian

>  <units_symbol>
µM

>  <reading_qualifier>
>

>  <obs_value>
100

$$$$
>  <compound>
COc1cccc2c3cccc(OC)c3c3[nH]cnc3c12

>  <measured_target>
OVCAR-4 ovarian

>  <units_symbol>
µM

>  <reading_qualifier>
=

>  <obs_value>
12

$$$$
>  <compound>
CCOC(=O)[C@H](Cc1ccccc1)NC(=O)c1nc[nH]c1[N+](=O)[O-]

>  <measured_target>
OVCAR-4 ovarian

>  <units_symbol>
µM

>  <reading_qualifier>
>

>  <obs_value>
100

$$$$
>  <compound>
O=S1(=O)COc2ccccc2-c2ncncc21

>  <measured_target>
OVCAR-4 ovarian

>  <units_symbol>
µM

>  <reading_qualifier>
>

>  <obs_value>
100

$$$$
>  <compound>
CC(=O)OCC1OC(O[C@@H]2C[C@H]3C(C)(C)[C@H](OC(C)=O)CC[C@]3(C)[C@H]3CC[C@@]45C[C@H](O)C[C@H](C)[C@@H]4CC=C5[C@@]32C)C(O)C(O)C1O (some centres undefined)

>  <measured_target>
OVCAR-4 ovarian

>  <units_symbol>
µM

>  <reading_qualifier>
=

>  <obs_value>
16.4

$$$$
>  <compound>
CCOC(=O)c1c(Nc2ccccc2)sc2cccnc12

>  <measured_target>
OVCAR-4 ovarian

>  <units_symbol>
µM

>  <reading_qualifier>
=

>  <obs_value>
79.9

$$$$
>  <compound>
O=S1c2ccccc2N=C(c2ccc3ccccc3c2)CC1c1ccccc1 (centres undefined)

>  <measured_target>
OVCAR-4 ovarian

>  <units_symbol>
µM

>  <reading_qualifier>
=

>  <obs_value>
56.1

$$$$
>  <compound>
CCN(CC)CC(O)CNc1ccc(NCC(O)CCl)c2c1C(=O)c1ccccc1C2=O (centres undefined)

>  <measured_target>
OVCAR-4 ovarian

>  <units_symbol>
µM

>  <reading_qualifier>
=

>  <obs_value>
16.1

$$$$
>  <compound>
Cc1cc(N2CCOCC2)nc(N(CCNc2ccnc3cc(Cl)ccc23)Cc2ccco2)n1

>  <measured_target>
OVCAR-4 ovarian

>  <units_symbol>
µM

>  <reading_qualifier>
=

>  <obs_value>
8.12

$$$$
